# Tested on: blackgrass
# METHOD_NOTES: Test B pre/postemergence blackgrass
# Format: in vivo, Alopecurus myosuroides
# SETUP_CONDITIONS: Preemergence, Rate 250 g/ha; scale of 0 to 10 where 0 is no effect and 10 is complete control
# Procedure: […] At the same time, these crop and weed species were also treated with postemergence applications of test chemicals formulated in the same manner. […] Treated plants and controls were maintained in a greenhouse for twelve to sixteen days, after which all species were compared to controls and visually evaluated. […]
Blackgrass plant response rating values for the compounds below.
The response must contain the number and no unit.

• CC(C)N(C(=O)n1oc(=O)n(CC2CCOC2)c1=O)c1ccc(F)cc1 (stereo not shown) = 9
• CC(C)N(C(=O)n1oc(=O)n(N2CCOCC2)c1=O)c1ccc(F)cc1 = 6
• CCN(C(=O)n1oc(=O)n(C(C)C)c1=O)C1CCCCC1 = 2

Pending compound:
Record CC(C)N(C(=O)n1oc(=O)n(C2CC3CCC2C3)c1=O)c1ccccc1 (stereo not shown) : what is its Blackgrass plant response rating with blackgrass?
4

----------
# Tested on: pigweed
# METHOD_NOTES: Test B pre/postemergence pigweed
# Assay type: in vivo, Amaranthus retroflexus
# SETUP_CONDITIONS: Rate 500 g/ha, Postemergence; scale 0 to 10, 0 no effect, 10 complete control
Catalogue of compounds with associated Plant response rating, Redroot pigweed
API note: the answer field is a bare number with no unit suffix.

// worked examples, Plant response rating, Redroot pigweed included
• CCOC(=O)C(C)N(C(=O)n1oc(=O)n(C)c1=O)c1ccc(F)cc1 (stereo not shown) = 0
• CC(C)N(C(=O)n1oc(=O)n(N2CCOCC2)c1=O)c1ccc(F)cc1 = 0
• CC(C)N(C(=O)n1oc(=O)n(C2(C)CC2)c1=O)c1ccc(F)cc1F = 5

Next up:
What value of measured Plant response rating, Redroot pigweed is listed for CC(C)N(C(=O)n1oc(=O)n(C2CC3CCC2C3)c1=O)c1ccc(F)cc1 (stereo not shown) ?
7

----------
# System: smallflower flatsedge
# METHOD_NOTES: Test B flood test smallflower flatsedge
# Type: in vivo, Cyperus difformis
# SETUP_CONDITIONS: Rate 250 g/ha; Pre-emergence; flood-test species; scale 0 to 10, 0 is no effect, 10 is complete control
MEASURED_ENDPOINT: S. Flatsedge plant response rating

Below are worked cases with known answers.
- CC1CC1n1c(=O)on(C(=O)N(c2ccc(F)cc2F)C(C)C)c1=O (centres unmarked): 0
- CC(C)N(C(=O)n1oc(=O)n(Cc2nnsc2Cl)c1=O)c1ccc(F)cc1F: 0
- CCOC(=O)C(C)N(C(=O)n1oc(=O)n(C)c1=O)c1ccc(F)cc1 (centres unmarked): 0

Need S. Flatsedge plant response rating of CC(C)N(C(=O)n1oc(=O)n(C2CCCC2)c1=O)c1ccc(F)cc1 , thanks.
0

Any idea what its S. Flatsedge plant response rating is? The compound is CC(C)N(C(=O)n1oc(=O)n(C)c1=O)c1ccc(F)cc1F
2

----------
# Test system: giant foxtail
# METHOD_NOTES: Test B pre/postemergence giant foxtail
# Type: in vivo, Setaria faberii
# SETUP_CONDITIONS: Rate 500 g/ha, Postemergence; scale 0 to 10, 0 no effect, 10 complete control
Property: Giant foxtail plant response rating; scope: individual compounds
Quick one: just the number, no unit, thanks!

- CC(C)N(C(=O)n1oc(=O)n(C2CCCC2)c1=O)c1ccc(F)cc1: 7
- CCOC(=O)C(C)N(C(=O)n1oc(=O)n(-c2ccccc2C)c1=O)c1ccc(F)cc1 (centres unmarked): 0
- CC(C)N(C(=O)n1oc(=O)n(COCc2ccccc2)c1=O)c1ccc(F)cc1: 0
- CC1Cc2cccc(-n3c(=O)on(C(=O)N(c4ccc(F)cc4)C(C)C)c3=O)c2O1 (centres unmarked): 0
- Cc1ccccc1-n1c(=O)on(C(=O)N(c2ccc(Oc3ccccc3)cc2)C(C)C)c1=O: 0
- CC(C)N(C(=O)n1oc(=O)n(C(C)C)c1=O)c1ccccc1: 9
- CN(C(=O)n1oc(=O)n(Cc2cccs2)c1=O)c1ccccc1: 0

Any idea what Giant foxtail plant response rating was measured for [2H]C([2H])([2H])n1c(=O)on(C(=O)N(c2ccc(F)cc2)C(C)C)c1=O ?
8

----------
Ducksalad plant response rating values, listed per item
# System: duck salad
# METHOD_NOTES: Test B flood test duck salad
# Format: in vivo, Heteranthera limosa
# SETUP_CONDITIONS: Rate 62 g/ha; Postemergence (flood test species); scale of 0 to 10 where 0 is no effect and 10 is complete control
I'd appreciate a reply containing only the number, no unit.

// solved cases for Ducksalad plant response rating follow
• CC(C)N(C(=O)n1oc(=O)n(CC2(C)COC2)c1=O)c1ccccc1 = 0
• CC1CC1n1c(=O)on(C(=O)N(c2ccc(F)cc2F)C(C)C)c1=O (stereo not shown) = 3

What value of measured Ducksalad plant response rating is listed for CC(C)N(C(=O)n1oc(=O)n(C2CCC2)c1=O)c1ccc(F)cc1F ?
0

Look up Ducksalad plant response rating: CC1CC1n1c(=O)on(C(=O)N(c2ccccc2)C(C)C)c1=O (stereo not shown)
0

----------
# System: wheat
# METHOD_NOTES: Test B pre/postemergence wheat
# Type: in vivo, Triticum aestivum
# SETUP_CONDITIONS: Preemergence, Rate 125 g/ha; scale 0 to 10, 0 is no effect, 10 is complete control
MEASURED_ENDPOINT: Wheat plant response rating
# respond with the number and nothing more

Worked set:
• COCn1c(=O)on(C(=O)N(c2ccc(F)cc2F)C(C)C)c1=O [Compound 503] = 2
• CC(C)N(C(=O)n1oc(=O)n(C[Si](C)(C)C)c1=O)c1ccc(Cl)cc1 [Compound 548] = 0
• CC(C)N(C(=O)n1oc(=O)n(CC2CCC2)c1=O)c1ccc(Cl)cc1 [Compound 550] = 2

Please look at the following compound next.
Given CC(C)N(C(=O)n1oc(=O)n(CC2CC2)c1=O)c1ccc(F)cc1F [Compound 509] , state its recorded Wheat plant response rating.
0

----------
# Test system: giant foxtail
# METHOD_NOTES: Test B pre/postemergence giant foxtail
# Assay type: in vivo, Setaria faberii
# SETUP_CONDITIONS: Preemergence, Rate 62 g/ha; scale of 0 to 10 where 0 is no effect and 10 is complete control
MEASURED_ENDPOINT: Plant response rating, Giant foxtail
Number only, no unit.

- CC(C)N(C(=O)n1oc(=O)n(CC2=NCCCO2)c1=O)c1ccccc1 [Compound 494]: 0
- CC(C)N(C(=O)n1oc(=O)n(CC2CC2)c1=O)c1ccc(F)cc1F [Compound 509]: 9
- CCN(CC)C(=O)Cn1c(=O)on(C(=O)N(c2ccc(F)cc2F)C(C)C)c1=O [Compound 512]: 5
- CCc1nc(C)c(C(C)n2c(=O)on(C(=O)N(c3ccc(F)cc3)C(C)C)c2=O)s1 (centres unmarked) [Compound 449]: 2

Lab note: next compound to report on.
Lab note: need Plant response rating, Giant foxtail for CC[Si](C)(C)Cn1c(=O)on(C(=O)N(c2ccc(Cl)cc2)C(C)C)c1=O [Compound 460] on giant foxtail, anyone have it?
0

----------
Measured Plant response rating, Cocklebur of individual entries
# System: cocklebur
# METHOD_NOTES: Test B pre/postemergence cocklebur
# Format: in vivo, Xanthium strumarium
# SETUP_CONDITIONS: Preemergence, Rate 125 g/ha; scale 0 to 10 (0 no effect, 10 complete control)
// return just the number, without any unit appended

Below: 3 molecules and their reported Plant response rating, Cocklebur.
- CC(C)N(C(=O)n1oc(=O)n(C(C)C)c1=O)c1ccccc1: 1
- COc1ccc(-n2c(=O)on(C(=O)N(c3ccc(F)cc3)C(C)C)c2=O)c(OC)c1: 0
- CCN(CC)C(=O)n1oc(=O)n(-c2ccc(F)cc2)c1=O: 0

Moving on to another molecule below.
Fill blank: measured Plant response rating, Cocklebur of the molecule CC(C)N(C(=O)n1oc(=O)n(-c2ccc(F)cc2F)c1=O)c1ccc(F)cc1F is ____.
0

----------
A collection of molecules and their measured Giant foxtail plant response rating
# Test system: giant foxtail
# METHOD_NOTES: Test B pre/postemergence giant foxtail
# Format: in vivo, Setaria faberii
# SETUP_CONDITIONS: Postemergence, Rate 500 g/ha; scale of 0 to 10 where 0 is no effect and 10 is complete control
Just the number.

* CCc1nc(C)c(C(C)n2c(=O)on(C(=O)N(c3ccc(F)cc3)C(C)C)c2=O)s1 (centres unmarked) | 3
* CC(C)N(C(=O)n1oc(=O)n(CCC#N)c1=O)c1ccc(Cl)cc1 | 9
* COC(OC)C(C)n1c(=O)on(C(=O)N(c2ccc(F)cc2)C(C)C)c1=O (centres unmarked) | 8
* CC(C)N(C(=O)n1oc(=O)n(CO)c1=O)c1ccc(Cl)cc1 | 0

Which value of Giant foxtail plant response rating has been reported for CC(C)N(C(=O)n1oc(=O)n(COC(=O)C(C)(C)C)c1=O)c1ccc(F)cc1 in the records?
0
